Attribution: patent EP1226131B1

# reported pKi; entries follow
target: α1a adrenergic receptor (Homo sapiens)
Sequence (P35348 whole entry): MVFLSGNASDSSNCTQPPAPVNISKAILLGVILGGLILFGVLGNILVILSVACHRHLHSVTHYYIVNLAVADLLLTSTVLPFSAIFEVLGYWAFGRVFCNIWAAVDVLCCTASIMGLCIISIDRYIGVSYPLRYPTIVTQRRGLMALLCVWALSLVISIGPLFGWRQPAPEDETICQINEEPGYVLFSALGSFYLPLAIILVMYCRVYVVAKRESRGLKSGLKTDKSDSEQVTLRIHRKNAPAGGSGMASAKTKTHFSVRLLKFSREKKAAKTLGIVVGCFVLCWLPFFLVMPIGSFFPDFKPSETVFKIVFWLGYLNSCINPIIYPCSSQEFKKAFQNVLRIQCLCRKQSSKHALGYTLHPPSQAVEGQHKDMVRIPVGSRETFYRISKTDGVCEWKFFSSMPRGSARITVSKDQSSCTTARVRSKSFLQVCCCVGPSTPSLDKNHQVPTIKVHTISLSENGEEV
pKi: −log10 of the molar value.
METRIC: pKi

1. Cc1onc(-c2ccccc2Cl)c1C(=O)NCCCN1CCN(c2ccc(F)cc2OCC(F)(F)F)CC1 ... 9.92
2. Cc1onc(-c2c(F)cccc2Cl)c1C(=O)NCCCN1CCN(c2ccccc2OCC(F)(F)F)CC1 ... 9.80
3. Cc1onc(-c2ccccc2)c1C(=O)NCCCN1CCN(c2ccccc2OCC(F)(F)F)CC1 ... 10.18
4. O=C(NCCCN1CCN(c2ccc(F)cc2OCC(F)(F)F)CC1)c1conc1-c1ccc(F)cc1 ... 9.96

---

system: diastolic blood pressure (DBP); experiment: Effect on diastolic blood pressure in anaesthetised dogs, i.v. administration; assay type: in vivo; details: dog, dose inducing a 25% decrease in diastolic blood pressure, one value spanning c3 and c4
# reported DBP ED25; entries follow
METRIC: DBP ED25 (mg/kg)

1. Cc1onc(-c2ccccc2)c1C(=O)NCCCN1CCN(c2cc(F)ccc2OCC(F)(F)F)CC1 ... 0.197
2. Cc1onc(-c2ccccc2)c1C(=O)NCCCN1CCN(c2ccc(F)cc2OCC(F)(F)F)CC1 ... 0.1967
3. Cc1onc(-c2ccccc2)c1C(=O)NCCCN1CCN(c2ccccc2OCC(F)(F)F)CC1 ... 0.5147
4. COc1ccc(Cl)cc1N1CCN(CCCNC(=O)c2c(-c3ccccc3)noc2C)CC1 ... 0.3454

---

# reported log10 of Ki; entries follow
Molecular target: recombinant α1d-adrenoceptor (Homo sapiens)
Sequence (P25100 1-572): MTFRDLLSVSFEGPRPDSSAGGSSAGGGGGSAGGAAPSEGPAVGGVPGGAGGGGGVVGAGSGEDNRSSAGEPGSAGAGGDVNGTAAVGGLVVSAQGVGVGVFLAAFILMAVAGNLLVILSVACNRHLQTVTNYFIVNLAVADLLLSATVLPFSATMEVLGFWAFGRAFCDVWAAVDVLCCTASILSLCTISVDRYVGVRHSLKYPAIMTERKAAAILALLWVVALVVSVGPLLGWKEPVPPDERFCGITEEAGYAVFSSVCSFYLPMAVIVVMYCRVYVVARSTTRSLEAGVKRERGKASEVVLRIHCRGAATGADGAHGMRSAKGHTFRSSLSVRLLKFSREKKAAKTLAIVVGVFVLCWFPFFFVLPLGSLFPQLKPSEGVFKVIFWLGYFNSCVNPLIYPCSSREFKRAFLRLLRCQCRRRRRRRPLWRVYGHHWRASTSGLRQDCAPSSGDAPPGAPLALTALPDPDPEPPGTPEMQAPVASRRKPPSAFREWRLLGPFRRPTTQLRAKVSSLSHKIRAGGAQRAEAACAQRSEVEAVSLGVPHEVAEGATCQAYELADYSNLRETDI
Assay: Radioligand binding assay ([3H]prazosin) on cloned α1-adrenoceptor subtype, membranes of transfected cells
METRIC: log10 of Ki (log10 of the value in nM)

1. O=C(NCCCN1CCN(c2ccc(F)cc2OCC(F)(F)F)CC1)c1conc1-c1ccc(F)cc1 ... 1.41
2. Cc1onc(-c2ccccc2)c1C(=O)NCCCN1CCN(c2ccccc2OCC(F)(F)F)CC1 ... 0.16
3. Cc1onc(-c2c(F)cccc2Cl)c1C(=O)NCCCN1CCN(c2ccccc2OCC(F)(F)F)CC1 ... 0.34
4. COc1ccc(OCC(F)(F)F)cc1N1CCN(CCCNC(=O)c2c(-c3ccccc3)noc2C)CC1 ... 2.11
5. Cc1onc(-c2ccccc2)c1C(=O)NCCCN1CCN(c2cc(Cl)ccc2OS(=O)(=O)C(F)(F)F)CC1 ... 1.59
6. Cc1onc(-c2c(Cl)cccc2Cl)c1C(=O)NCCCN1CCN(c2ccc(F)cc2OCC(F)(F)F)CC1 ... 1.59
7. Cc1onc(-c2c(F)cccc2Cl)c1C(=O)NCCCN1CCN(c2ccc(F)cc2OCC(F)(F)F)CC1 ... 0.79
8. Cc1onc(-c2ccccc2)c1C(=O)NCCCN1CCN(c2cc(Cl)ccc2O)CC1 ... 1.40
9. Cc1onc(-c2ccccc2Cl)c1C(=O)NCCCN1CCN(c2ccc(F)cc2OCC(F)(F)F)CC1 ... 0.67

---

target: human 5-HT1A-serotoninergic receptor (Homo sapiens); construct: expressed in transfected cells; host or cells: HeLa; test: Radioligand binding assay ([3H]8-OH-DPAT) on membranes of transfected HeLa cells; conditions: human receptor in HeLa cells, read-out: Affinity (Ki, nM) 5-HT1A
Sequence (P08908 whole entry): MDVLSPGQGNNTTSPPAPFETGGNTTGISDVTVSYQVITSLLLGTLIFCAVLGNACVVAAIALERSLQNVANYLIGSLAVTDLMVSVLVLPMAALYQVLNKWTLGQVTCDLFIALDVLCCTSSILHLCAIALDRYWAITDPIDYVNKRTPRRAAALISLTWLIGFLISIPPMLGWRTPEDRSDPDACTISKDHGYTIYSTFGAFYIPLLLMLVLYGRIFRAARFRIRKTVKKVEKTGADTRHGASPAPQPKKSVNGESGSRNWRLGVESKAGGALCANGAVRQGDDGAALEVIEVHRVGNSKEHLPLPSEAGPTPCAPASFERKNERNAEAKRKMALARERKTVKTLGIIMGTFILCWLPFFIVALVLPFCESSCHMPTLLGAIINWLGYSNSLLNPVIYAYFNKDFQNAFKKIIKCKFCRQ
METRIC: Ki (nM)

1. Cc1onc(-c2ccccc2)c1C(=O)NCCCN1CCN(c2cc(Cl)ccc2OS(=O)(=O)C(F)(F)F)CC1 [Example 7] ... 1000
